The origin of these recorded values is patent US20240247080A1.

Tested On: hNPY2R (Homo sapiens, UniProt P49146)
Construct: expressed in transfected cells; host or cells: HEK-293 cells carrying a CRE-luciferase reporter gene
Sequence (P49146 whole entry): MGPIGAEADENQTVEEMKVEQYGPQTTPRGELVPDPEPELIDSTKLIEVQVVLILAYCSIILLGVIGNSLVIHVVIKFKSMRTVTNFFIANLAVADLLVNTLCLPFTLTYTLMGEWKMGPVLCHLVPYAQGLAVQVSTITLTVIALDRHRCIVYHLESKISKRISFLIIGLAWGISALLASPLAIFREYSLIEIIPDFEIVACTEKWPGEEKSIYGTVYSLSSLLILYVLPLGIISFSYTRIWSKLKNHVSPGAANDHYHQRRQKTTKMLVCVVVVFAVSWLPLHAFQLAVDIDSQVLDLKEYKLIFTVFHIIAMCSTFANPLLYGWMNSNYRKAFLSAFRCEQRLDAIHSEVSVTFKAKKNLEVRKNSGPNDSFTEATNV
Measurement Protocol: hNPY2R CreLuc reporter gene assay in 0.5% and 100% plasma
Type: cell-based
Test Parameters: CreLuc reporter gene assay, 0.5% human plasma; read-out: hNPY2R 0.5% hP
Starred links: 1 amine or outer side, 2 acyl side, 3 side chain; linkers in the order of their positions; H or OH if unused. Non-standard residues stand in square brackets, D forms with d. Groups on a side chain read outwards from the residue. *: point of attachment. C20 diacid = O=C(O)CCCCCCCCCCCCCCCCCCC(=O)*; γGlu = O=C(O)[C@H](CCC(=O)[*:2])N[*:1]; εLys = N[C@@H](CCCCN[*:1])C(=O)[*:2]; Aib = CC(C)(N)C(=O)O
Endpoint: EC50 (nM)
Quick note: give the figure in nM, leave out the unit.

(Q) Recorded EC50 of H-Y[Aib]EGTFTSDYSI[Aib]LEKQAQ[Aib]AFVQWLIK([εLys-γGlu-γGlu-γGlu-γGlu-γGlu-C20 diacid])GGPSEYASLRHYYNWLTRQRY-NH2 [Compound 189] , please.
(A) 8.03

(Q) Endpoint output: EC50 of H-Y[Aib]EGTFTSDYSI[Aib]LEKQAQ[Aib]AFVEWLIK([εLys-γGlu-γGlu-γGlu-γGlu-γGlu-γGlu-C20 diacid])GGPSSGATLRHYYNWLTRQRY-NH2 [Compound 91] . Value?
(A) 16.2

(Q) What measured EC50 goes with H-Y[Aib]EGTFTSDYSI[Aib]LE[Aib]KAQ[Aib]EFVEWLIK([εLys-γGlu-γGlu-γGlu-γGlu-γGlu-γGlu-C20 diacid])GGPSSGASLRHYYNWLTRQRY-NH2 [Compound 24] ?
(A) 26.8

(Q) Suppose we examine the substance H-Y[Aib]EGTFTSDYSI[Aib]LEKQAQ[Aib]AFVEWLIK([γGlu-γGlu-γGlu-γGlu-γGlu-γGlu-C20 diacid])GGGSEYVSLRHYYNWLTRQRY-NH2 [Compound 65] ; what EC50 value has been reported?
(A) 11

====

Tested On: hGIPR (Homo sapiens)
Construct: expressed in transfected cells; host or cells: CHO cells carrying a CRE-luciferase reporter gene
Measurement Protocol: hGIPR CreLuc reporter gene assay in 0.5% and 100% plasma
Assay type: cell-based
Test Parameters: CreLuc reporter gene assay, 100% human plasma; read-out: hGIPR 100% hP
Starred links: 1 amine or outer side, 2 acyl side, 3 side chain; linkers in the order of their positions; H or OH if unused. Non-standard residues stand in square brackets, D forms with d. Groups on a side chain read outwards from the residue. No end group written: not given here. *: point of attachment. C20 diacid = O=C(O)CCCCCCCCCCCCCCCCCCC(=O)*; C18 diacid = O=C(O)CCCCCCCCCCCCCCCCC(=O)*; γGlu = O=C(O)[C@H](CCC(=O)[*:2])N[*:1]; εLys = N[C@@H](CCCCN[*:1])C(=O)[*:2]; β3hQ = NC(=O)CC[C@H](N)CC(=O)O; AEEA = NCCOCCOCC(=O)O; Aib = CC(C)(N)C(=O)O
Endpoint: pEC50
Give only the number. pEC50 is defined as minus log10 of concentration in molar units.

(Q) Under hGIPR (Homo sapiens): pEC50 value of Y[Aib]EGTFTSDYSI[Aib]LEKQAQ[Aib]AFIEWLIK([AEEA-AEEA-γGlu-γGlu-γGlu-γGlu-C18 diacid])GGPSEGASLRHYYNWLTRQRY-NH2 [Compound 258] ?
(A) 8.91

(Q) Hello, I am looking for reported pEC50 with hGIPR (Homo sapiens) for H-Y[Aib]EGTFTSDYSI[Aib]LEKQAQ[Aib]AFVQWLIK([εLys-γGlu-γGlu-γGlu-γGlu-γGlu-γGlu-C20 diacid])GGPSEGASLRHYYNWLTR[β3hQ]RY-NH2 [Compound 186] . Could you help?
(A) 9.11

(Q) Param readout = pEC50; param system = hGIPR (Homo sapiens); param query = H-Y[Aib]EGTFTSDYSI[Aib]LEKQAQ[Aib]AFVEWLIK([γGlu-γGlu-γGlu-γGlu-γGlu-γGlu-C20 diacid])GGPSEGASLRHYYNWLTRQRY-NH2 [Compound 305] ; response: value
(A) 8.55

(Q) Give hGIPR (Homo sapiens) pEC50 for H-Y[Aib]EGTFTSDYSI[Aib]LEKQAQ[Aib]AFVEWLIK([εLys-γGlu-γGlu-γGlu-γGlu-γGlu-γGlu-C20 diacid])GGPSEPASLRHYYNWLTRQRY-NH2 [Compound 233]
(A) 9.12

(Q) Find the measured pEC50: item H-Y[Aib]EGTFTSDYSI[Aib]LEKQAQ[Aib]AFVEWLIK([εLys-γGlu-γGlu-γGlu-γGlu-γGlu-γGlu-C20 diacid])GGPSSGQS[Aib]RHYYNWLTRQRY-NH2 [Compound 44] , target or system hGIPR (Homo sapiens).
(A) 8.94

(Q) Checklist item: pEC50 tested on hGIPR (Homo sapiens), entry H-Y[Aib]EGTFTSDYSI[Aib]LEKQAE[Aib]AFVEWLIK([AEEA-AEEA-γGlu-γGlu-γGlu-γGlu-C18 diacid])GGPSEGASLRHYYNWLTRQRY-NH2 [Compound 251] , value?
(A) 9.01

====

Tested On: hGIPR (Homo sapiens, UniProt P48546)
Construct: expressed in transfected cells; host or cells: CHO cells carrying a CRE-luciferase reporter gene
Sequence (P48546 22-466): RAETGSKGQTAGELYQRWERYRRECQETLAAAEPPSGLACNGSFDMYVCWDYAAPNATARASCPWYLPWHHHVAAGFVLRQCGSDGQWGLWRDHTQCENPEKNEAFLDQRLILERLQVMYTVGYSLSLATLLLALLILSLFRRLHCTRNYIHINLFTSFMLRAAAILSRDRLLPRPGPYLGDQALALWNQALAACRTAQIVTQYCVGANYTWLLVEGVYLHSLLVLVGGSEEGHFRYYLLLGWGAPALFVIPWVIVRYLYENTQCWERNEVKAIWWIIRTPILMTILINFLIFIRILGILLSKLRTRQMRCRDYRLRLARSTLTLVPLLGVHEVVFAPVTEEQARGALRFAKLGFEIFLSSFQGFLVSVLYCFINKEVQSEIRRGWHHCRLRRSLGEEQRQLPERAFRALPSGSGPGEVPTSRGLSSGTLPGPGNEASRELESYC
Measurement Protocol: hGIPR CreLuc reporter gene assay in 0.5% and 100% plasma
Assay type: cell-based
Test Parameters: CreLuc reporter gene assay, 0.5% human plasma; read-out: hGIPR 0.5% hP
Starred links: 1 amine or outer side, 2 acyl side, 3 side chain; linkers in the order of their positions; H or OH if unused. Non-standard residues stand in square brackets, D forms with d. Groups on a side chain read outwards from the residue. *: point of attachment. C20 diacid = O=C(O)CCCCCCCCCCCCCCCCCCC(=O)*; C18 diacid = O=C(O)CCCCCCCCCCCCCCCCC(=O)*; γGlu = O=C(O)[C@H](CCC(=O)[*:2])N[*:1]; εLys = N[C@@H](CCCCN[*:1])C(=O)[*:2]; Tle = CC(C)(C)[C@H](N)C(=O)O; Aib = CC(C)(N)C(=O)O; Ahx = NCCCCCC(=O)O
I'd appreciate it if you could supply EC50 values for the items below.

(Q) Value lookup for EC50; key = H-Y[Aib]EGTFTSDYSI[Aib]LEEQAQ[Aib]AFVEWLIK([εLys-γGlu-γGlu-γGlu-γGlu-C20 diacid])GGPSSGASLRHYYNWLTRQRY-NH2 [Compound 97]
(A) 0.14 nM

(Q) Please report the recorded EC50 for H-Y[Aib]EGTFTSDYSI[Aib]LEKEKQ[Aib]AFVEWLIK([εLys-γGlu-γGlu-γGlu-γGlu-γGlu-γGlu-C20 diacid])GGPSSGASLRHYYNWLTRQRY-NH2 [Compound 69] .
(A) 0.8 nM

(Q) # query: EC50 of entry H-Y[Aib]EGTFTSDYSI[Aib]LEKQAQ[Aib]AFVEWLIK([εLys-γGlu-γGlu-γGlu-γGlu-γGlu-γGlu-C20 diacid])GGPSEGQSLRHYYNWLTRQRY-NH2 [Compound 227]
(A) 0.06 nM

(Q) Which measured EC50 value corresponds to H-Y[Aib]EGTFTSDYSI[Aib]LEKQAQ[Aib]AFVEWLIK([εLys-γGlu-γGlu-γGlu-γGlu-γGlu-γGlu-C20 diacid])GGPSSGASLRHY[Tle]NWLTRQRY-NH2 [Compound 133] ?
(A) 0.48 nM

(Q) Which EC50 is reported for this substance? H-Y[Aib]EGTFTSDYSI[Aib]LEKQAQ[Aib]AFVEWLIK([Ahx-γGlu-γGlu-γGlu-γGlu-γGlu-C18 diacid])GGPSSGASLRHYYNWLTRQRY-NH2 [Compound 260]
(A) 0.31 nM
